- studySystem: T1, recombinant human GREM1 (hGREM1-His; C-terminal 10His tagged, R&D, #5190-GR) (human, UniProt O60565 25-184)
- T1 construct: range 25-184; also called recombinant human GREM1 with a C-terminal decahistidine tag
- T1 sequence: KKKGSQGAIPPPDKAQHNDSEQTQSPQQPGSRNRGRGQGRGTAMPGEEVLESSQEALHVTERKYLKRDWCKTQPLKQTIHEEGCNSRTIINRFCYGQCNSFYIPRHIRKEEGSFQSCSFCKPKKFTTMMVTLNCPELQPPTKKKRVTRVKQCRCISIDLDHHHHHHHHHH
- protocolDescription: BLI Octet, mAb captured, 100 nM GREM1;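 note: octet Red96 biolayer interferometry at 25 °C in pH 7.4 HEPES saline buffer, antibodies held on anti-human IgG Fc capture biosensors, then exposed to GREM1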
propertyName: Binding Signal with 300 sec Association (nm)
Field: numeric (nm). Do not append units.

Answered cases to consult:
H4H6270P (antibody, human IgG4, V domains shown, H4H prefix = human IgG4 Fc) VH: QVQLVESGGDVVQPGRSLRLSCAASGFTFSSYGMHWVRQAPGKGLEWVAIIWNDGSNKYYTDSVKGRFTISRDNSKNTLYLQMNGLRAEDTAIYYCARDQDQFDYWGQGTLVTVSS VL: EIVMTQSPATLSVSPGERATLSCRASQSISTNLAWYRQKPGQAPRLLIYDASTRATGIPARFSGSGSGTDFTLTISSLQSEDFAVYYCQQYSNWPPYTFGQGTKLEIK ... 0.39
H4H2783N2 (antibody, human IgG4, V domains shown, H4H prefix = human IgG4 Fc) VH: EVQLLESGGGLVQPGGSLRLSCAASGFTFSSYVMNWVRQAPGKGLEWVSAISGSGGSTYYADSVKGRSTISRDNSKNTLYLQMNSLRAEDTAIYYCAKGDIAAIVFDAFDIWGQGTVVTVSS VL: DIQMTQSPSSLSASVGDRVTITCQASQDISSALNWYQHKPGKAPKLLIYDASYLETGVPSRFSGSGSGTDFTFTISSLQPEDIATYYCQQYDNLPYTFGQGTKLEIK ... 0.47
H4H2889N (antibody, human IgG4, V domains shown, H4H prefix = human IgG4 Fc) VH: QVQLQESGPGLVKPSETLSLTCTVSGGSISNSYWSWIRQPPGKGLEWIGYIYYSGNTNYNPSLKSRVTISVDTSKNQFSLKLSSVTAADTAVYYCARVNDYSNYDSYYYGMDVWGQGTTVTVSS VL: AIQMTQSPSSLSASVGDRVTITCRASQGIRNDLGWYQQKPGKAPKLLIYAASSLQSGVPSRFSGSGSGTDFTLTISSLQPEDFATYYCLQDYNYPPTFGQGTKVDIK ... 0.46
H4H6260P (antibody, human IgG4, V domains shown, H4H prefix = human IgG4 Fc) VH: QVQLVESGGGVVQPGRSLRLSCAASGFTFSTYGMHWVRQAPGKGLEWVAIIWYDGSNYYYADSVKGRFTISRDNSKNTLYLQMNSLRAEDTAVYYCAREDRNDVFDIWGQGTMVTVSS VL: EIVLTQSPATLSLSPGERATLSCRASQSVSSFLAWYQQKPGQAPRLLIYDSSNRATGIPARFSGSGSGTDFTLTISSLEPEDFAVYYCQQLSNWPPITFGQGTRLEIK ... 0.42

Consider H4H6240P (antibody, human IgG4, V domains shown, H4H prefix = human IgG4 Fc) VH: QVQLVESGGGVVQPGRSLRLSCAASGFTFSSYGMHWVRQAPGKGLEWVAVIWYDGSNKYYADSVKGRFIISRDNSKNMMYLQMNSLRAEDTAVYYCAREDNWNYAFDYWGQGTLVTVSS VL: EIVMTQSPATLSVSPGERATLSCRASQSISSNLAWYQQKPGQAPRLLIYDSSTRATGIPARFSGSGSGTQFTLTISSLQSEDFALYYCQQYSNWPPFTFGPGTKVDIK . Its measured Binding Signal with 300 sec Association is 0.53
